test: inhibitors of hydroxyurea-induced Chk1 phosphorylation, primary screen, imaging, HeLa, phospho-Chk1 antibody, percent positive cells (AID 1186); conditions: hydroxyurea-induced phospho-Chk1 immunofluorescence imaging, higher = more signal
Recorded z-score for the following compounds
Provide a numeric answer; units are not to be included.

// known answers, use as guide
COMPOUND: CC(C)CNC(=O)[C@@H]1c2ccccc2C(=O)N(Cc2ccccc2)[C@H]1c1ccc(CO)cc1
z-score: 0.212
--
COMPOUND: O=C1C2C=CC(C(O)c3cccc(O)c3)N(Nc3ccccc3F)C2C(=O)N1c1ccccc1 (stereo not given)
z-score: -0.388
--
COMPOUND: CC(C)CNC(=O)[C@@H]1c2ccccc2C(=O)N(CC23CC4CC(CC(C4)C2)C3)[C@H]1c1ccc(CO)cc1
z-score: -0.282
--
COMPOUND: COC(=O)[C@@]1(Cc2ccccc2)[C@@H]2[C@@H](CC(=O)[C@H]2CC(=O)C(=O)N(C)C)CN1C(=O)c1ccccc1
z-score: 0.273
--
COMPOUND: [N-]=[N+]=NCc1ccccc1C[C@]1(C(=O)N2CCOCC2)N=C(c2ccc(OCCCO)cc2)O[C@H]1c1ccccc1CN=[N+]=[N-]
z-score: -0.597
--
COMPOUND: CCCCC(O)C1C=CC2C(=O)NC(=O)C2N1Nc1ccccn1 (stereo not given)
z-score: 0.846

Attention now turns to another entry.
Read the entry `COCCOC(=O)N1C(=O)[C@@]2(c3cc(C#CCC(C(=O)OC)C(=O)OC)ccc31)[C@H](C(N)=O)[C@H]1C(=O)O[C@H](c3ccccc3)[C@H](c3ccccc3)N1[C@@H]2c1ccc(OCCO)cc1` and write its reported z-score. -0.153
